Biological target: human wild-type CFTR (Homo sapiens)
Sequence (P13569 whole entry): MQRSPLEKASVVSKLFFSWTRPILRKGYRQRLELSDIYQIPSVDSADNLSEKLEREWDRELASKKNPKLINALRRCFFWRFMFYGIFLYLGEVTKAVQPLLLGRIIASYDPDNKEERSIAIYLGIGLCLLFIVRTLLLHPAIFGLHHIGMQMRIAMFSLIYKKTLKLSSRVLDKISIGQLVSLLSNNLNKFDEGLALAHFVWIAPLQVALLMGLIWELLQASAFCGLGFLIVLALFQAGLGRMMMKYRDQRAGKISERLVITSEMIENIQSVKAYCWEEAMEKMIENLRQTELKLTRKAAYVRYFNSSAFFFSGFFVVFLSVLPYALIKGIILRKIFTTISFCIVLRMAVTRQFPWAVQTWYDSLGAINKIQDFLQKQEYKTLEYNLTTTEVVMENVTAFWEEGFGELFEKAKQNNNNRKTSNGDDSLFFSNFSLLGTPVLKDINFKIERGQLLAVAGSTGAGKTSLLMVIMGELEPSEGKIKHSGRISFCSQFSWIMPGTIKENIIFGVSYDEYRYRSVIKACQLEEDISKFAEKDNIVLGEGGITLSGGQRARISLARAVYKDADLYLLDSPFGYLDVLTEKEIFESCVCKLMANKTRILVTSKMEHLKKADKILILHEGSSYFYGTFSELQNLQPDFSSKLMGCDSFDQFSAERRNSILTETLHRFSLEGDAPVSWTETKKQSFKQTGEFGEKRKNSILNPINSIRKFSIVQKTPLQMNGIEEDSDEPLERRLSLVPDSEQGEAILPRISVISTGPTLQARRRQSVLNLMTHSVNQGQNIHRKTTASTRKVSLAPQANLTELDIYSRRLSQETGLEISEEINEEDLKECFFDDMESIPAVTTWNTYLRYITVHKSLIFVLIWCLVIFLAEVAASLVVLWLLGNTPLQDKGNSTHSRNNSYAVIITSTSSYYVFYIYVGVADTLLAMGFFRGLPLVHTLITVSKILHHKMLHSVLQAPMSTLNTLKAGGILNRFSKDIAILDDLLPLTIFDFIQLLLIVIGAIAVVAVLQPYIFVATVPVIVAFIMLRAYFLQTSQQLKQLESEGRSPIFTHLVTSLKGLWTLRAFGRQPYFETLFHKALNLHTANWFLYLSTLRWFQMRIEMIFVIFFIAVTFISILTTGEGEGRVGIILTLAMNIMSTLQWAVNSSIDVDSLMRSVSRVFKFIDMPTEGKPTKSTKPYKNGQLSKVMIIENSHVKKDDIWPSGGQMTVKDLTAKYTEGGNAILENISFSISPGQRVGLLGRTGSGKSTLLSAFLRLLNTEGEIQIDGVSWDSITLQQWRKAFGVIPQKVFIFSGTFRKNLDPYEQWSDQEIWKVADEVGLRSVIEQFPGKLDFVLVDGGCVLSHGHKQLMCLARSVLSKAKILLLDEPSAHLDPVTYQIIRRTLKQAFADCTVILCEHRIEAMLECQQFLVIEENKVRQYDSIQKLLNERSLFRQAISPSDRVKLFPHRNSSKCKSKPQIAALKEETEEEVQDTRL
Assay: Cell-based plate reader (YFP iodide influx) assay of CFTR function
Design: expressed in transfected cells; host or cells: Fischer rat thyroid (FRT) cells stably co-expressing YFP-H148Q
Details: N,N-diethyl-N′-aryl-1,3,5-triazine diamine analogs; read-out: EC50 for CFTR activation
Description: The initiate rate of I^− influx was computed by determined using exponential regression. All compound plates contained negative controls (DMSO vehicle) and positive controls (20 μM forskolin). High-throughput screening. […] The initiate rate of I^− influx was computed by determined using exponential regression. All compound plates contained negative controls (DMSO vehicle) and positive controls ([…] forskolin). Platereader assays of chloride channel function. CFTR activity was assayed as described. […]
Measured pEC50 by item
# pEC50 is unitless: minus log10 of the molar concentration; print number only

Worked set:
CCN(CC)c1nc(Nc2cccc(F)c2)nc(OC(C(F)(F)F)C(F)(F)F)n1 | 6.85
CCN(CC)c1nc(Nc2ccc(C(=O)O)cc2)nc(OC(C(F)(F)F)C(F)(F)F)n1 | 6.05
CCN(CC)c1nc(Nc2cccc(C(=O)O)c2)nc(OCC(F)(F)C(F)F)n1 | 6.30
CCN(CC)c1nc(Nc2cccc(C(=O)O)c2)nc(OC(C(F)(F)F)C(F)(F)F)n1 | 6.80
CCN(CC)c1nc(Nc2cccc(Cl)c2)nc(OCC(F)(F)C(F)F)n1 | 5.27
CCN(CC)c1nc(Nc2ccc(F)cc2)nc(OCC(F)(F)C(F)F)n1 | 5.32
CCN(CC)c1nc(Nc2ccccc2)nc(OCC(F)(F)C(F)F)n1 | 5.70
CCN(CC)c1nc(Nc2ccccc2)nc(OC(C(F)(F)F)C(F)(F)F)n1 | 6.62

# next compound below
Query :: Give the measured pEC50 of "CCN(CC)c1nc(Nc2ccc([N+](=O)[O-])cc2)nc(OC(C(F)(F)F)C(F)(F)F)n1" .
Result :: 4.74
